# TESTED TARGET: IRAK4 (Homo sapiens)
# Construct: endogenous in cells; host or cells: THP-1 cells
# Sequence (Q9NWZ3 whole entry): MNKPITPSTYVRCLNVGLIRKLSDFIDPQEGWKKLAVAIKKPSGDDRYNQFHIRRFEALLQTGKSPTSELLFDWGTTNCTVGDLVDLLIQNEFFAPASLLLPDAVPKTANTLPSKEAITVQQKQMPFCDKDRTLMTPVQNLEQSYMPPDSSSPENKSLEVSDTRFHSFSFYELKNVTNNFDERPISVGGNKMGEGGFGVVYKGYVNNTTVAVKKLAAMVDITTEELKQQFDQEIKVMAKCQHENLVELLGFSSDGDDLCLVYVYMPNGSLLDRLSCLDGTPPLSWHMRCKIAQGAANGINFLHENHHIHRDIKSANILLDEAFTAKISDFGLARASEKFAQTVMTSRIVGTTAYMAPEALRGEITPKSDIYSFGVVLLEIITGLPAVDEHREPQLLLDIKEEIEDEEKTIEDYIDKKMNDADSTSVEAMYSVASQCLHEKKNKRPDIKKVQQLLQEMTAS
# ASSAY DETAILS: LVL THP1 HTRF (THP1 Homogeneous Time Resolved Fluorescence)
# Assay type: cell-based
# EXPERIMENTAL CONTEXT: THP1 cells, 18 h incubation with compound
ASSAY READOUT: LVL THP1 HTRF YMIN

MOLECULE	READOUT VALUE
C[C@H](C#N)Nc1cc(-n2ncc3cc(C#N)c(N)nc32)ncc1-n1cc(C2CCC(CCN3[C@H](C)CN(c4ccc(C5CCC(=O)NC5=O)cc4)C[C@H]3C)CC2)nn1 (stereo partly shown) [P-220]	4.3%
C[C@H](C#N)Nc1cc(-n2ncc3cc(C#N)c(N)nc32)ncc1C(=O)N[C@H]1CC[C@H](CCN2CCN(c3ccc([C@@]4(C)CCC(=O)NC4=O)cn3)[C@@H](C)C2)CC1 (single isomer, unassigned) [P-249]	1.9%
C[C@H](C#N)Nc1cc(-n2ncc3cc(C#N)c(N)nc32)ncc1C(=O)N[C@H]1CC[C@H](CCN2CCN(c3ccc(C4CCC(=O)NC4=O)cn3)[C@H](C)C2)CC1 (stereo partly shown) [P-166]	<0.5%
CC[C@@H]1CN(CC[C@H]2CC[C@H](c3cn(-c4cnc(-n5ncc6cc(C#N)cnc65)cc4N[C@H](C)C#N)nn3)CC2)CCN1c1ccc(C2CCC(=O)NC2=O)cc1 (stereo partly shown) [P-452]	0.5%
CC[C@H]1CN(CC[C@H]2CC[C@H](c3cn(-c4cnc(-n5ncc6cc(C#N)cnc65)cc4N[C@H](C)C#N)nn3)CC2)CCN1c1ccc(N2CCC(=O)NC2=O)cc1 [P-445]	4.0%
C[C@H](C#N)Nc1cc(Nc2ncc(C#N)cc2Cl)ncc1-n1cc([C@H]2CC[C@H](CCN3CCN(c4ccc(N5CCC(=O)NC5=O)cc4)[C@@H]4COC[C@@H]43)CC2)nn1 (single isomer, unassigned) [P-503]	82.16%
C[C@H](C#N)Nc1cc(-n2ncc3cc(C#N)c(N)nc32)ncc1-n1cc([C@H]2CC[C@H](CCN3CCN(c4cnc([C@@]5(C)CCC(=O)NC5=O)nc4)CC3)CC2)nn1 (single isomer, unassigned) [P-263]	9.0%
C[C@H](C#N)Nc1cc(-n2ncc3cc(C#N)cnc32)ncc1-n1cc(C2CCC(CCN3CCN(c4ccc([C@]5(C)CCC(=O)NC5=O)cc4)CC3)CC2)nn1 (stereo partly shown) [P-210]	>95.0%
C[C@H](C#N)Nc1cc(-n2ncc3cc(C#N)cnc32)ncc1-n1cc(C2CCC(CCN3C[C@H](C)N(c4ccc([C@@]5(C)CCC(=O)NC5=O)cc4)C[C@H]3C)CC2)nn1 (stereo partly shown) [P-244]	3.5%
COc1nc2c(cnn2-c2cc(N[C@H](C)C#N)c(C(=O)N[C@H]3CC[C@H](CCN4CCN(c5ccc(C6CCC(=O)NC6=O)cc5)CC4)CC3)cn2)cc1C#N (stereo partly shown) [P-184]	1.3%
